- System: BDF1 mice, P388 leukemia ip, median survival T/C
- assay_text: NCI In Vivo Anticancer Drug Screen. Data for tumor model P388 Leukemia (intraperitoneal) in B6D2F1 (BDF1) mice
- test_context: endpoint: median survival time; dose: 100.0 mg/kg/injection; schedule: Q04DX003 (ip); vehicle: other; higher = longer survival
Inconclusive results and toxic doses are left out.
measured_attribute: T/C

INSERT INTO assay_data (smiles_string, observed_value) VALUES
  ('CC[C@H](c1ccc(O)cc1)[C@@H](CC)c1ccc(O)cc1', '100 % of control');

Then there is this compound:
Challenge: Param item = CCOC(c1ccccc1)(c1ccccc1)c1ccccc1 ; retrieve measured T/C.
Response given: 105 % of control

* * *

- System: BDF1 mice, P388 leukemia ip, median survival T/C
- assay_text: NCI In Vivo Anticancer Drug Screen. Data for tumor model P388 Leukemia (intraperitoneal) in B6D2F1 (BDF1) mice
- test_context: endpoint: median survival time; dose: 3.13 mg/kg/injection; schedule: Q01DX009 (ip); vehicle: Klucel (hydroxypropylcellulose) (HPC); higher = longer survival
- Protocol: The antitumor activity of compounds was measured in mice bearing transplantable tumors. Survival or tumor size were measured and the results are expressed as the measurement made in the treated group (T) divided by the measurement made in the vehicle treated control group (C). The tumor model used in this assay is P388 Leukemia (intraperitoneal) in B6D2F1 (BDF1) mice
Inconclusive results and toxic doses are left out.
measured_attribute: T/C

INSERT INTO assay_data (compound, observed_value) VALUES
  ('O=C1NC(c2cccc(OCc3ccccc3)c2)Nc2ccccc21 (centres undefined)', '97 % of control'),
  ('O=[N+]([O-])c1cc([N+](=O)[O-])c(Cl)cc1Cl', '104 % of control'),
  ('COc1cc2oc3c(c(=O)c2c(O)c1/C=C/C(C)C)CCC(C)(C)Oc1cc(O)ccc1-3', '96 % of control');

Attention now turns to another entry.
Challenge: Could you share what T/C was measured for O=C1C(Br)=CC(=NCl)C=C1Br , tested on BDF1 mice, P388 leukemia ip, median survival T/C?
Response given: 118 % of control

* * *

- System: BDF1 mice, P388 leukemia ip, median survival T/C
- assay_text: NCI In Vivo Anticancer Drug Screen. Data for tumor model P388 Leukemia (intraperitoneal) in B6D2F1 (BDF1) mice
- test_context: endpoint: median survival time; dose: 6.25 mg/kg/injection; schedule: Q01DX009 (ip); vehicle: Klucel (hydroxypropylcellulose) (HPC); higher = longer survival
Toxic doses and inconclusive results are not listed.
Below is a list of entries, each paired with its recorded T/C value.

Reference set, count: 5
INSERT INTO assay_data (smiles_string, measured_attribute, observed_value) VALUES
  ('CCN1CC1', 'T/C', '90 % of control'),
  ('O/N=C(\C[n+]1ccccc1)c1ccc2ccccc2c1', 'T/C', '122 % of control'),
  ('CN(C)c1ccc(P(c2ccc(N(C)C)cc2)c2ccc(N(C)C)cc2)cc1', 'T/C', '88 % of control'),
  ('CC(=O)OCC(=O)[C@@]1(O)CC[C@H]2[C@@H]3CCC4=CC(=O)[C@H](C)C[C@]4(C)[C@@]3(F)[C@@H](O)C[C@@]21C', 'T/C', '109 % of control'),
  ('CC1=Cc2ccc(C)cc2C(=O)C1=O', 'T/C', '108 % of control');

Challenge: Entry CCn1cnc2c(=S)nc(N)[nH]c21 : reported T/C = ?
Response given: 118 % of control

Challenge: // query T/C value for entry CC(=O)OCC(=O)[C@@]12OC(C)(C)O[C@@H]1C[C@H]1[C@@H]3CC(C=O)=C4C=C(OCCCl)CC[C@]4(C)[C@@]3(F)[C@@H](O)C[C@@]12C
Response given: 122 % of control

Challenge: Consider the compound shown here: CC(=O)Oc1ccc(OC(C)=O)c2c1C(=O)C=CC2=O What is its recorded T/C?
Response given: 91 % of control

Challenge: Need T/C of O=C1C(Br)=CC(=NCl)C=C1Br , thanks.
Response given: 112 % of control
